B1: GFOD1 (parent)
chain: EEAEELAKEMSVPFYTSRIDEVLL

variants of: B1; assay: protein stability index of a GFP-peptide fusion (GPS, HEK-293T) (PSI 1-6); higher = more stable; conditions: c terminus: a fixed tail appended;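 note: lentivirally expressed fusions sorted by FACS into six bins by GFP to DsRed ratio, PSI derived from sequencing read proportions per bin multiplied by bin number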
Record YES whenever protein stability index is at 4 or higher; record NO when lower.

sequence_data: EEAEELAKYMSVPFYTSRIDEVLL [E9Y]
group_label: NO

sequence_data: EEAEELAKSMSVPFYTSRIDEVLL [E9S]
group_label: NO

sequence_data: EEAEMLAKEMSVPFYTSRIDEVLL [E5M]
group_label: NO

sequence_data: EEAEERAKEMSVPFYTSRIDEVLL [L6R]
group_label: YES

sequence_data: EEAEELAKEMSVPFYMSRIDEVLL [T16M]
group_label: NO

sequence_data: EEAEELYKEMSVPFYTSRIDEVLL [A7Y]
group_label: NO

sequence_data: EIAEELAKEMSVPFYTSRIDEVLL [E2I]
group_label: NO

sequence_data: EEAGELAKEMSVPFYTSRIDEVLL [E4G]
group_label: NO

sequence_data: EEAEELAKEMSVPFETSRIDEVLL [Y15E]
group_label: YES

sequence_data: VEAEELAKEMSVPFYTSRIDEVLL [E1V]
group_label: NO

sequence_data: EEAEELAKEMSVPFYTSRIDENLL [V22N]
group_label: YES

sequence_data: EEAEEAAKEMSVPFYTSRIDEVLL [L6A]
group_label: YES

sequence_data: EEAEELAKEMGVPFYTSRIDEVLL [S11G]
group_label: NO

sequence_data: ERAEELAKEMSVPFYTSRIDEVLL [E2R]
group_label: NO

All values here come from the supplement of paper PMC10567573.
